biological target: human (h) TRPV3 (Homo sapiens, UniProt Q8NET8); construct: expressed in transfected cells; host or cells: HEK293/TREx, tetracycline-induced; test: Whole-cell patch clamp, human TRPV3-mediated currents; type: cell-based; conditions: Phase 1 inward current, read-out: P1 In (h);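 note: compounds tested at concentrations up to 30 µM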
Sequence (Q8NET8 whole entry): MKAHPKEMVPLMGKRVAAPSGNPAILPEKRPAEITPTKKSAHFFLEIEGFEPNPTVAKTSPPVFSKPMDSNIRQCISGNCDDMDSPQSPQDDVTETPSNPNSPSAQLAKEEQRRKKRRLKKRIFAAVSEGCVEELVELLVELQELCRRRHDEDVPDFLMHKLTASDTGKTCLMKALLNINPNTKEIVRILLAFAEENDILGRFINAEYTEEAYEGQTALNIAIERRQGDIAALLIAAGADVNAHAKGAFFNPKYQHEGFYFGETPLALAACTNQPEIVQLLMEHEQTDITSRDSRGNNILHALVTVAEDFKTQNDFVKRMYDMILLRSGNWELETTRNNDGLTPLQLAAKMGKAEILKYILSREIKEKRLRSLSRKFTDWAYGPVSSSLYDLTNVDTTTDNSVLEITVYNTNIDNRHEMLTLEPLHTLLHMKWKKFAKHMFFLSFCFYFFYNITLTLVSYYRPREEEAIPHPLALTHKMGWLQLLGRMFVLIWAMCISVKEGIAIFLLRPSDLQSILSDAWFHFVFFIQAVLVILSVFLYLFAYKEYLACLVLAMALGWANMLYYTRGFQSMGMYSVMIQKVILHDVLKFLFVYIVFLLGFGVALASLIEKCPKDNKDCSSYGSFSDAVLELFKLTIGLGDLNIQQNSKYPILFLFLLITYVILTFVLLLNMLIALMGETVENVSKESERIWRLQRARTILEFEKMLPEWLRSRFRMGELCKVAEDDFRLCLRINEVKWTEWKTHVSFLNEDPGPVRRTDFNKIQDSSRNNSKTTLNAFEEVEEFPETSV
// values below are reported IC50

Sample answers from the record:
>  <MOLECULE>
COc1cccc(/C=C/c2nc3cnccc3c(=O)n2-c2c(C)cccc2C)n1 [Compound 24]

>  <IC50>
≤ 10 µM

$$$$
>  <MOLECULE>
Cc1cccc(C)c1-n1c(/C=C/c2cnccc2O)nc2cnccc2c1=O [Compound 29]

>  <IC50>
≤ 10 µM

$$$$
>  <MOLECULE>
CCc1cccc(CC)c1-n1c(/C=C/c2cccc(OC)c2O)nc2ccccc2c1=O [Compound 50]

>  <IC50>
≤ 0.5 µM

$$$$

Enquiry: Requested read-out: IC50. Entry: COc1cccc(/C=C/c2nc3ccccc3c(=O)n2-c2c(C)cc(OCCO)cc2C)c1O [Compound 1]
Return: ≤ 1 µM

Enquiry: Ok, now COc1cc(/C=C/c2nc3cnccc3c(=O)n2-c2c(C)cccc2C)ccn1 [Compound 26]
Return: ≤ 10 µM

Enquiry: Ok, now Cc1cccc(C)c1-n1c(/C=C/c2cc(Cl)cnc2O)nc2cnccc2c1=O [Compound 22]
Return: ≤ 10 µM

Enquiry: Ok, now COc1nccc(/C=C/c2nc3ccccc3c(=O)n2-c2c(C)cccc2C)c1O [Compound 37]
Return: ≤ 0.5 µM

Enquiry: Ok, now Cc1cccc(C)c1-n1c(/C=C/c2cc(OC(F)(F)F)ccc2O)nc2cnccc2c1=O [Compound 21]
Return: ≤ 10 µM

* * *

// values below are reported IC50
biological target: human (h) TRPV3 (Homo sapiens, UniProt Q8NET8); construct: expressed in transfected cells; host or cells: HEK293/TREx, tetracycline-induced; assay: Whole-cell patch clamp, human TRPV3-mediated currents; assay type: cell-based; details: Phase 2 inward current, read-out: P2 In (h);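 note: compounds tested at concentrations up to 30 µM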

>  <INPUT SMILES>
CCc1cccc(CC)c1-n1c(/C=C/c2cccc(OC)c2O)nc2ccccc2c1=O

>  <TEST READOUT>
IC50

>  <VALUE>
≤ 500 nM

$$$$

Enquiry: I'm curious: which IC50 was measured for COc1cccc(/C=C/c2nc3cnccc3c(=O)n2-c2c(C)cccc2OC)c1O tested on human (h) TRPV3 (Homo sapiens, UniProt Q8NET8)?
Return: ≤ 500 nM

Enquiry: Ok, now CCOc1cccc(/C=C/c2nc3cnccc3c(=O)n2-c2c(C)cccc2C)c1O
Return: ≤ 500 nM

Enquiry: Ok, now COc1cccc(/C=C/c2nc3ccccc3c(=O)n2-c2c(C)cc(OCCN(C)C)cc2C)c1O
Return: ≤ 5000 nM

Enquiry: Ok, now COc1ccccc1-n1c(/C=C/c2cccc(OC)c2O)nc2ccccc2c1=O
Return: ≤ 500 nM

Enquiry: Ok, now COc1cccc(C=Cc2nc3cnccc3c(=O)n2-c2c(C)cccc2C)c1O
Return: ≤ 500 nM

Enquiry: Ok, now COc1cccc(/C=C/c2nc3ccccc3c(=O)n2-c2c(C)ccnc2C)c1O
Return: ≤ 500 nM

Enquiry: Ok, now COc1cccc(C=Cc2nc3ccccc3c(=O)n2-c2c(C)cccc2C)c1OP(=O)(O)O
Return: ≤ 500 nM

Enquiry: Ok, now Cc1ccccc1-n1c(-c2ccoc2)nc2ccccc2c1=O
Return: ≤ 10000 nM

Enquiry: Ok, now COc1cccc(/C=C/c2nc3ccccc3c(=O)n2-c2c(C)cncc2C)c1O
Return: ≤ 500 nM

Enquiry: Ok, now CCOc1cccc(/C=C/c2nc3cnccc3c(=O)n2-c2c(F)cccc2F)c1O
Return: ≤ 500 nM

Enquiry: Ok, now CCOc1cccc(C=Cc2nc3ccccc3c(=O)n2-c2c(F)cccc2F)c1O
Return: ≤ 500 nM

Enquiry: Ok, now CCOc1nccc(/C=C/c2nc3ccccc3c(=O)n2-c2ccccc2C)c1O
Return: ≤ 500 nM

Enquiry: Ok, now Cc1ccccc1-n1c(/C=C/c2nnn[nH]2)nc2ccccc2c1=O
Return: > 10000 nM

Enquiry: Ok, now COc1cccc(/C=C/c2nc3ccccc3c(=O)n2-c2c(F)cccc2F)c1O
Return: ≤ 500 nM

Enquiry: Ok, now COc1cccc(-n2c(/C=C/c3cccc(OC)c3O)nc3cnccc3c2=O)c1C
Return: ≤ 10000 nM

Enquiry: Ok, now Cc1cccc(C)c1-n1c(/C=C/c2cccc(OC(F)(F)F)c2O)nc2cnccc2c1=O
Return: ≤ 500 nM

Enquiry: Ok, now COc1cccc(/C=C/c2nc3ccccc3c(=O)n2-c2c(C)cc(OCCO)cc2C)c1O
Return: ≤ 1000 nM

Enquiry: Ok, now COc1nccc(/C=C/c2nc3ccccc3c(=O)n2-c2c(C)cccc2C)c1O
Return: ≤ 500 nM

Enquiry: Ok, now CCOc1cccc(C=Cc2nc3cnccc3c(=O)n2-c2ccccc2C)c1O
Return: ≤ 500 nM

Enquiry: Ok, now COc1cccc(/C=C(\C)c2nc3ccccc3c(=O)n2-c2ccccc2C)c1O
Return: ≤ 5000 nM

Enquiry: Ok, now Cc1cccc(C)c1-n1c(/C=C/c2cccc(OC(C)C)c2O)nc2ccccc2c1=O
Return: ≤ 500 nM

Enquiry: Ok, now COc1nccc(/C=C/c2nc3cnccc3c(=O)n2-c2c(C)cccc2C)c1O
Return: ≤ 500 nM

Enquiry: Ok, now CCOc1cccc(C=Cc2nc3ccccc3c(=O)n2-c2c(C)cccc2C)c1O
Return: ≤ 500 nM

* * *

// values below are reported IC50
target: human (h) TRPV3 (Homo sapiens, UniProt Q8NET8); construct: expressed in transfected cells; host or cells: HEK293/TREx, tetracycline-induced; experiment: Whole-cell patch clamp, human TRPV3-mediated currents; type: cell-based; details: Phase 1 outward current, read-out: P1 Out (h);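 note: compounds tested at concentrations up to 30 µM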

Sample answers from the record:
>  <COMPOUND>
CCc1cccc(CC)c1-n1c(/C=C/c2cccc(OC)c2O)nc2ccccc2c1=O [Compound 50]

>  <EXPERIMENTAL TARGET>
human (h) TRPV3 (Homo sapiens, UniProt Q8NET8)

>  <IC50>
≤ 0.5 µM

$$$$
>  <COMPOUND>
COc1cccc(C=Cc2nc3ccccc3c(=O)n2-c2c(C)cccc2C)c1OP(=O)(O)O [Compound 53]

>  <EXPERIMENTAL TARGET>
human (h) TRPV3 (Homo sapiens, UniProt Q8NET8)

>  <IC50>
≤ 0.5 µM

$$$$
>  <COMPOUND>
COc1cccc(/C=C/c2nc3ccccc3c(=O)n2-c2c(C)cccc2OCCO)c1O [Compound 48]

>  <EXPERIMENTAL TARGET>
human (h) TRPV3 (Homo sapiens, UniProt Q8NET8)

>  <IC50>
≤ 1 µM

$$$$
>  <COMPOUND>
COc1cccc(-n2c(/C=C/c3cccc(OC)c3O)nc3ccccc3c2=O)c1 [Compound 54]

>  <EXPERIMENTAL TARGET>
human (h) TRPV3 (Homo sapiens, UniProt Q8NET8)

>  <IC50>
≤ 0.5 µM

$$$$
>  <COMPOUND>
COc1ccccc1-n1c(/C=C/c2cccc(OC)c2O)nc2cnccc2c1=O [Compound 13]

>  <EXPERIMENTAL TARGET>
human (h) TRPV3 (Homo sapiens, UniProt Q8NET8)

>  <IC50>
≤ 10 µM

$$$$
>  <COMPOUND>
CCOc1cccc(C=Cc2nc3ccccc3c(=O)n2-c2c(C)cccc2C)c1O [Compound 49]

>  <EXPERIMENTAL TARGET>
human (h) TRPV3 (Homo sapiens, UniProt Q8NET8)

>  <IC50>
≤ 0.5 µM

$$$$
>  <COMPOUND>
COc1cccc(/C=C/c2nc3cnccc3c(=O)n2-c2c(C)cccc2OC)c1O [Compound 14]

>  <EXPERIMENTAL TARGET>
human (h) TRPV3 (Homo sapiens, UniProt Q8NET8)

>  <IC50>
≤ 0.5 µM

$$$$
>  <COMPOUND>
Cc1cccc(C)c1-n1c(/C=C/c2cccc(OC(F)(F)F)c2O)nc2ccccc2c1=O [Compound 55]

>  <EXPERIMENTAL TARGET>
human (h) TRPV3 (Homo sapiens, UniProt Q8NET8)

>  <IC50>
≤ 0.5 µM

$$$$
>  <COMPOUND>
Cc1cccc(C)c1-n1c(/C=C/c2cccc(OC(C)C)c2O)nc2ccccc2c1=O [Compound 51]

>  <EXPERIMENTAL TARGET>
human (h) TRPV3 (Homo sapiens, UniProt Q8NET8)

>  <IC50>
≤ 0.5 µM

$$$$
>  <COMPOUND>
Cc1cccc(C)c1-n1c(/C=C/c2cccc(OC(F)(F)F)c2O)nc2cnccc2c1=O [Compound 12]

>  <EXPERIMENTAL TARGET>
human (h) TRPV3 (Homo sapiens, UniProt Q8NET8)

>  <IC50>
≤ 0.5 µM

$$$$

Enquiry: Requested read-out: IC50. Entry: COc1cccc(/C=C/c2nc3cnccc3c(=O)n2-c2c(C)cccc2Cl)c1O [Compound 16]
Return: ≤ 0.5 µM

Enquiry: Ok, now COc1cccc(/C=C/c2nc3ccccc3c(=O)n2-c2c(C)ccnc2C)c1O [Compound 32]
Return: ≤ 0.5 µM

Enquiry: Ok, now COc1ccnc(/C=C/c2nc3ccccc3c(=O)n2-c2c(C)cccc2C)c1O [Compound 39]
Return: ≤ 10 µM

Enquiry: Ok, now Cc1cccc(C)c1-n1c(/C=C/c2cccc3cn[nH]c23)nc2cnccc2c1=O [Compound 10]
Return: ≤ 10 µM

Enquiry: Ok, now COc1nccc(/C=C/c2nc3cnccc3c(=O)n2-c2c(C)cccc2C)c1O [Compound 15]
Return: ≤ 0.5 µM

Enquiry: Ok, now COc1cccc(-n2c(/C=C/c3cccc(OC)c3O)nc3cnccc3c2=O)c1C [Compound 17]
Return: ≤ 10 µM

Enquiry: Ok, now COc1cccc(/C=C/c2nc3ccccc3c(=O)n2-c2c(C)cncc2C)c1O [Compound 33]
Return: ≤ 0.5 µM
